Data provenance: paper PMC4774911

// each record: one item and its IC50 for RPS6KA5 (Homo sapiens, UniProt O75582)

CN(C)CC(O)COc1ccc(Nc2ncc([N+](=O)[O-])c(Nc3ccccc3O)n2)cc1.O=C(O)C(F)(F)F (centres unmarked): > 20 µM

API: the following record is the query input.
Exercise: For Cl.NCC1(c2nc(-c3ccc(Cl)c(O)c3)c(-c3ccncc3)[nH]2)CCCCC1 , what is its reported IC50?
Solution: > 20 µM

----------
- measurement_target: MELK (Homo sapiens)
- Sequence (Q14680 whole entry): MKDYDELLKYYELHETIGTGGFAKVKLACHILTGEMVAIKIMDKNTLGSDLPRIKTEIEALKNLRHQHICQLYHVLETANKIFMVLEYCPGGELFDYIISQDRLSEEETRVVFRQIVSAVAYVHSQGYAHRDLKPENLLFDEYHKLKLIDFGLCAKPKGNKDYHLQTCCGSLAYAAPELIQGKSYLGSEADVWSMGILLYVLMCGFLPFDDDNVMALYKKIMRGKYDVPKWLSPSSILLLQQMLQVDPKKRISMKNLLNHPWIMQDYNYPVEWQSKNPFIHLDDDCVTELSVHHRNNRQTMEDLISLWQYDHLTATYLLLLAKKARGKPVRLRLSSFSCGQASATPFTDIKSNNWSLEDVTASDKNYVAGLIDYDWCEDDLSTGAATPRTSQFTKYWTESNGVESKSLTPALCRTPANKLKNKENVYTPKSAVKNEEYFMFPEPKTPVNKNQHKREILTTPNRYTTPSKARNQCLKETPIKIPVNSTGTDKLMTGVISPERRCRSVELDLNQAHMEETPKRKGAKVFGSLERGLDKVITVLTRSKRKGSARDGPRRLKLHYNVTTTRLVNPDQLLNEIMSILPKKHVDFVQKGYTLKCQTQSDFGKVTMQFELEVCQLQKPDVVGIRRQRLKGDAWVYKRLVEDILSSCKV
pIC50: −log10 of the molar value.
endpoint_name: pIC50

Exercise: For CN(C)CC(O)COc1ccc(Nc2ncc([N+](=O)[O-])c(Nc3ccccc3O)n2)cc1.O=C(O)C(F)(F)F (stereo not shown) , what is its reported pIC50?
Solution: < 4.70

----------
- measurement_target: EIF2AK4 (Homo sapiens)
endpoint_name: IC50

Exercise: For EIF2AK4 (Homo sapiens), provide IC50 of Cl.NCC1(c2nc(-c3ccc(Cl)c(O)c3)c(-c3ccncc3)[nH]2)CCCCC1 please.
Solution: > 20 µM

----------
- measurement_target: CRKRS (Homo sapiens)
endpoint_name: IC50 (nM)
Quick note: give the figure in nM, leave out the unit.

CN1CCN(c2ccc(Nc3ncc(C#N)c(Nc4ccccc4C(N)=O)n3)cc2)CC1.Cl: 650

API: the following record is the query input.
Exercise: For CRKRS (Homo sapiens), provide IC50 of CN(C)CC(O)COc1ccc(Nc2ncc([N+](=O)[O-])c(Nc3ccccc3O)n2)cc1.O=C(O)C(F)(F)F (stereo not drawn) please.
Solution: 2100

----------
- measurement_target: MERTK (Homo sapiens, UniProt Q12866)
- Sequence (Q12866 1-999): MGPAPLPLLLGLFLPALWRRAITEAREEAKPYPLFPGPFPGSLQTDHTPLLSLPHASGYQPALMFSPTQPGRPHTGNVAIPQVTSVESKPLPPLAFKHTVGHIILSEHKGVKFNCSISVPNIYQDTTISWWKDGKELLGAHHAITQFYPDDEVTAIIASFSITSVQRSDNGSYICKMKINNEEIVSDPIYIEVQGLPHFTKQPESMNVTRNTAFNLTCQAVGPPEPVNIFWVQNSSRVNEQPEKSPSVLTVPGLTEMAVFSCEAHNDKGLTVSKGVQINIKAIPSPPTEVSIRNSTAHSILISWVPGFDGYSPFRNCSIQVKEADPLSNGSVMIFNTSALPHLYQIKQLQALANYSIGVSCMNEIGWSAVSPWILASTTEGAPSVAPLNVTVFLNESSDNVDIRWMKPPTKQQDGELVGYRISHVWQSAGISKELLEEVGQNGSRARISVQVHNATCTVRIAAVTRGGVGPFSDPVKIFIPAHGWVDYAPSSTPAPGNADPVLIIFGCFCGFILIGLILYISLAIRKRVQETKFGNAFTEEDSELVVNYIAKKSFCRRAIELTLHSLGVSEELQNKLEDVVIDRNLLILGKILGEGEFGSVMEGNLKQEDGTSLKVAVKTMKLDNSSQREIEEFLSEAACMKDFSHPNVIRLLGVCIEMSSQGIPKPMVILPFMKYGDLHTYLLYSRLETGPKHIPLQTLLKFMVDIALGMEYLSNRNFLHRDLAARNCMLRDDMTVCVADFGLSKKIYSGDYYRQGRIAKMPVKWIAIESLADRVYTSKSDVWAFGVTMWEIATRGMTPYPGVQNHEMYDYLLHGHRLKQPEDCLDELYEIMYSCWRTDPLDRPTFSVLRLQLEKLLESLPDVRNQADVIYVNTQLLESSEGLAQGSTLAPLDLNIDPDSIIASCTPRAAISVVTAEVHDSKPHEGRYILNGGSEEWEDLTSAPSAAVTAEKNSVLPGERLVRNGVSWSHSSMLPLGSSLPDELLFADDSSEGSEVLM
endpoint_name: IC50 (nM)
Quick note: give the figure in nM, leave out the unit.

CN1CCN(c2ccc(Nc3ncc(C#N)c(Nc4ccccc4C(N)=O)n3)cc2)CC1.Cl: 630
Cl.NCC1(c2nc(-c3ccc(Cl)c(O)c3)c(-c3ccncc3)[nH]2)CCCCC1: 9300

API: the following record is the query input.
Exercise: For CN(C)CC(O)COc1ccc(Nc2ncc([N+](=O)[O-])c(Nc3ccccc3O)n2)cc1.O=C(O)C(F)(F)F (stereo not drawn) , what is its reported IC50?
Solution: 1100

----------
- measurement_target: JAK1 (Homo sapiens, UniProt P23458)
- Sequence (P23458 whole entry): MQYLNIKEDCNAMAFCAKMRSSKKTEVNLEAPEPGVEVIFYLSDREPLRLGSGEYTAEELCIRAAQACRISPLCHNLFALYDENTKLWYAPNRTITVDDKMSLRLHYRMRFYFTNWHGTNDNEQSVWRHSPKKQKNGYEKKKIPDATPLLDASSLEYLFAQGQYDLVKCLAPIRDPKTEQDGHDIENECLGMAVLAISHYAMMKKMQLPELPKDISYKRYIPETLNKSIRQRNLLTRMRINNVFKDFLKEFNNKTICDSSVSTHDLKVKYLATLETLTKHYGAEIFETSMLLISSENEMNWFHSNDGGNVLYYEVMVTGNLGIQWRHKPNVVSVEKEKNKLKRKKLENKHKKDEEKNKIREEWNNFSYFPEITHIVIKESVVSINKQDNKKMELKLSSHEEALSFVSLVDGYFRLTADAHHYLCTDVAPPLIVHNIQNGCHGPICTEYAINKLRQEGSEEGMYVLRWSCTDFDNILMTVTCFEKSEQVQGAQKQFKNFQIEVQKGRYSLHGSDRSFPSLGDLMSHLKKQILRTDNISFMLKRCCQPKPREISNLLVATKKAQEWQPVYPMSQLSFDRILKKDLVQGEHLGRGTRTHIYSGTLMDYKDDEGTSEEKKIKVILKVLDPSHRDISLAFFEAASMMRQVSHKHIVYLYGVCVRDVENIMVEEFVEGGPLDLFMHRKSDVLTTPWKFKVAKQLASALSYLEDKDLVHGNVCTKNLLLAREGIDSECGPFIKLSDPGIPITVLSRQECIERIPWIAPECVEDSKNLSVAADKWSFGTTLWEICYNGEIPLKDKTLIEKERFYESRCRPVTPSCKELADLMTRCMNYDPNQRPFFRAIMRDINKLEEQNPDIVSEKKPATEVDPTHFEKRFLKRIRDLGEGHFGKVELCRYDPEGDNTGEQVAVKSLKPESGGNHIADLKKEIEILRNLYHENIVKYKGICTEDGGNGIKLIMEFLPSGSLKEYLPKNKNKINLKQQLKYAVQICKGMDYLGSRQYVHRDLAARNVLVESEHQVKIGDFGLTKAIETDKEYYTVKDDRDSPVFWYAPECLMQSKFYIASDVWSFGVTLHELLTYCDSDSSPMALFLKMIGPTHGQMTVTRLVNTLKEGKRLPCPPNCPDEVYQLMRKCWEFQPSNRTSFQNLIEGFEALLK
pIC50: −log10 of the molar value.
endpoint_name: pIC50

Exercise: For Cl.NCC1(c2nc(-c3ccc(Cl)c(O)c3)c(-c3ccncc3)[nH]2)CCCCC1 , what is its reported pIC50?
Solution: < 4.70

----------
- measurement_target: PIP4K2C (Homo sapiens, UniProt Q8TBX8)
pIC50: −log10 of the molar value.
endpoint_name: pIC50

Exercise: For PIP4K2C (Homo sapiens, UniProt Q8TBX8), provide pIC50 of Cl.NCC1(c2nc(-c3ccc(Cl)c(O)c3)c(-c3ccncc3)[nH]2)CCCCC1 please.
Solution: < 4.70

----------
- measurement_target: MAP2K2 (Homo sapiens, UniProt P36507)
- experiment_notes: biochemical
pIC50: −log10 of the molar value.
endpoint_name: pIC50

Exercise: For CN(C)CC(O)COc1ccc(Nc2ncc([N+](=O)[O-])c(Nc3ccccc3O)n2)cc1.O=C(O)C(F)(F)F (stereo not shown) , what is its reported pIC50?
Solution: < 4.70

----------
- measurement_target: PRKCQ (Homo sapiens)
pIC50: −log10 of the molar value.
endpoint_name: pIC50

Exercise: For CN(C)CC(O)COc1ccc(Nc2ncc([N+](=O)[O-])c(Nc3ccccc3O)n2)cc1.O=C(O)C(F)(F)F (stereo not shown) [TCMDC-141399] , what is its reported pIC50?
Solution: < 4.70

----------
Catalogue of IC50 readings, one per entry.
- measurement_target: Plasmodium falciparum calcium-dependent protein kinase 4 (CDPK4) (Plasmodium falciparum, UniProt Q8IBS5)
- Construct: 6-Histidine (N); made in house
- Sequence (Q8IBS5 whole entry): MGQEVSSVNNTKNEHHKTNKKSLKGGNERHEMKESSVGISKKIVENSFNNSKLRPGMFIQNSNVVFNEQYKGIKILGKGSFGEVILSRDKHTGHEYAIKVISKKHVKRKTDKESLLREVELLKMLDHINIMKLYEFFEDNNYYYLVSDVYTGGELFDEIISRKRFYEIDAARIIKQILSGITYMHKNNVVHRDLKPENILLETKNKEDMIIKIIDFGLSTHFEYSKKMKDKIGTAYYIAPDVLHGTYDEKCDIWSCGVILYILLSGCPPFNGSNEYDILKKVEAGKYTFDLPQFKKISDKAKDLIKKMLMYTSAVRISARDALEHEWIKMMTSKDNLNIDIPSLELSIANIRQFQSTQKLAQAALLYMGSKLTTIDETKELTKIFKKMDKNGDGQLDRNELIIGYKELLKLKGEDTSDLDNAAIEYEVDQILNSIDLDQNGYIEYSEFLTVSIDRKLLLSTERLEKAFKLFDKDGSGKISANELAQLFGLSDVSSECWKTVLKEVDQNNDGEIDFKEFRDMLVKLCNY
- experiment_notes: CDPK4 Kinase-Glo ATP-consumption screen and dose-response
- Type: biochemical
- condition_summary: hits below 1 uM
Quick note: give the figure in nM, leave out the unit.

Take a look at these entries with their results.
CCn1c(-c2nonc2N)nc2c(-c3cccc(NC(=O)Nc4ccccc4OC)c3)ncc(OCCCN)c21.O=C(O)C(F)(F)F [TCMDC-136190]: 706
Cn1cccc1C(=O)Nc1cccc(-c2nn3ccccc3c2-c2ccnc(Nc3ccc4c(c3)OCCO4)n2)c1 [TCMDC-135663]: 191
O=C(Nc1cccc(-c2nn3ncccc3c2-c2ccnc(Nc3ccccc3)n2)c1)c1c(F)cccc1F [TCMDC-134631]: 352
CC(C)(CN)c1cc(-c2ccc(Cl)c(O)c2)c(-c2ccncc2)o1.Cl [TCMDC-141334]: 433
COc1cc(Nc2nccc(-c3c(-c4cccc(NC(=O)c5c(F)cccc5F)c4)nn4ccccc34)n2)cc(OC)c1OC [TCMDC-135668]: 77

Exercise: For O=C(Nc1cccc(-c2nn3ncccc3c2-c2ccnc(Nc3cccc(-c4cnco4)c3)n2)c1)c1c(F)cccc1F [TCMDC-135550] , what is its reported IC50?
Solution: 145

Exercise: For CNC(=O)c1ccccc1Nc1nc(Nc2ccc(CCN3CCN(C)CC3)cc2)ncc1Cl.Cl [TCMDC-133800] , what is its reported IC50?
Solution: 361

----------
- measurement_target: RIPK2 (Homo sapiens, UniProt O43353)
endpoint_name: pIC50
Scale explanation: pIC50 corresponds to minus log10 of a concentration expressed in moles per litre.

Exercise: For RIPK2 (Homo sapiens, UniProt O43353), provide pIC50 of CN1CCN(c2ccc(Nc3ncc(C#N)c(Nc4ccccc4C(N)=O)n3)cc2)CC1.Cl [TCMDC-134116] please.
Solution: 6.09

----------
Catalogue of IC50 readings, one per entry.
- measurement_target: STK38 (Homo sapiens, UniProt Q15208)
- Sequence (Q15208 whole entry): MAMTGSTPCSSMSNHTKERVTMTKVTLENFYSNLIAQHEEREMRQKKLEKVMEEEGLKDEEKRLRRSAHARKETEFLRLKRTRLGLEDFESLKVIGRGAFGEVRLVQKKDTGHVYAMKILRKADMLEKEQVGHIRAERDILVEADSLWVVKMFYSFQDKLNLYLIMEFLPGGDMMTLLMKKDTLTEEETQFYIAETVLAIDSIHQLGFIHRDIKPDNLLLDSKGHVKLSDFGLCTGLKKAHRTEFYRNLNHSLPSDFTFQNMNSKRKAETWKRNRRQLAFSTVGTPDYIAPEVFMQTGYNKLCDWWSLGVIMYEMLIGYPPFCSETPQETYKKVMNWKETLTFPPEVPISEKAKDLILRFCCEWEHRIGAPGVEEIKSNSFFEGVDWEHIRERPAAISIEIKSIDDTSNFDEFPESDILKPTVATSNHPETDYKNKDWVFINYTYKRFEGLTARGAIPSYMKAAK
- experiment_notes: biochemical

Cl.NCC1(c2nc(-c3ccc(Cl)c(O)c3)c(-c3ccncc3)[nH]2)CCCCC1: > 20 µM

API: the following record is the query input.
Exercise: For CN(C)CC(O)COc1ccc(Nc2ncc([N+](=O)[O-])c(Nc3ccccc3O)n2)cc1.O=C(O)C(F)(F)F (centres unmarked) , what is its reported IC50?
Solution: > 20 µM

----------
- measurement_target: PTK2B (Homo sapiens, UniProt Q14289)
- Sequence (Q14289 whole entry): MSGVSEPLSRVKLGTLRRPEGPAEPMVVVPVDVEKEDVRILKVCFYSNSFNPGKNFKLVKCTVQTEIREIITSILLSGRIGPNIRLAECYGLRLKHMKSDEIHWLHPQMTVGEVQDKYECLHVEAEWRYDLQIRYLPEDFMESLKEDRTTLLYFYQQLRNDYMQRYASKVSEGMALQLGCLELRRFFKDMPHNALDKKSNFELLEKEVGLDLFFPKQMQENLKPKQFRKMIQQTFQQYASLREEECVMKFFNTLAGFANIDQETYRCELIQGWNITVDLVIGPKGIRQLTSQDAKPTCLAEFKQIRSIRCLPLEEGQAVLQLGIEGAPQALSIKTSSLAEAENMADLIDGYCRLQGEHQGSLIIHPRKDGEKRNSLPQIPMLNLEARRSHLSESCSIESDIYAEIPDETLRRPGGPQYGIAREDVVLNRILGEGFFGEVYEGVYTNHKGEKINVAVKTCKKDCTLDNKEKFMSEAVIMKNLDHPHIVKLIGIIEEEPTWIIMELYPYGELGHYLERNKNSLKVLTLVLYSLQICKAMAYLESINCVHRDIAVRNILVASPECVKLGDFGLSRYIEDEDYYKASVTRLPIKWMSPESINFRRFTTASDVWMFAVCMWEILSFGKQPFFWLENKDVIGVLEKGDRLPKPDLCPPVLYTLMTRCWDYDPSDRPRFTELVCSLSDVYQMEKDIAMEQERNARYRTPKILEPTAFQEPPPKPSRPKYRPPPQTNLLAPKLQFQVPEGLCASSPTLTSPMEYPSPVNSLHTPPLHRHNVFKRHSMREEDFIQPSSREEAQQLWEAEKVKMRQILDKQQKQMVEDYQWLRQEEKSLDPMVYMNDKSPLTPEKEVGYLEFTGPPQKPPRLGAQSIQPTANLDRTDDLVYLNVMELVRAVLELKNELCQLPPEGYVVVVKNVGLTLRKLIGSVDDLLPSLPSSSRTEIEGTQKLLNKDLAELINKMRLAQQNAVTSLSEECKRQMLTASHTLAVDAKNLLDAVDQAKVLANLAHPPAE
endpoint_name: IC50

Exercise: For Cl.NCC1(c2nc(-c3ccc(Cl)c(O)c3)c(-c3ccncc3)[nH]2)CCCCC1 [TCMDC-141154] , what is its reported IC50?
Solution: > 20 µM

----------
- measurement_target: PLK4 (Homo sapiens, UniProt O00444)
- Sequence (O00444 whole entry): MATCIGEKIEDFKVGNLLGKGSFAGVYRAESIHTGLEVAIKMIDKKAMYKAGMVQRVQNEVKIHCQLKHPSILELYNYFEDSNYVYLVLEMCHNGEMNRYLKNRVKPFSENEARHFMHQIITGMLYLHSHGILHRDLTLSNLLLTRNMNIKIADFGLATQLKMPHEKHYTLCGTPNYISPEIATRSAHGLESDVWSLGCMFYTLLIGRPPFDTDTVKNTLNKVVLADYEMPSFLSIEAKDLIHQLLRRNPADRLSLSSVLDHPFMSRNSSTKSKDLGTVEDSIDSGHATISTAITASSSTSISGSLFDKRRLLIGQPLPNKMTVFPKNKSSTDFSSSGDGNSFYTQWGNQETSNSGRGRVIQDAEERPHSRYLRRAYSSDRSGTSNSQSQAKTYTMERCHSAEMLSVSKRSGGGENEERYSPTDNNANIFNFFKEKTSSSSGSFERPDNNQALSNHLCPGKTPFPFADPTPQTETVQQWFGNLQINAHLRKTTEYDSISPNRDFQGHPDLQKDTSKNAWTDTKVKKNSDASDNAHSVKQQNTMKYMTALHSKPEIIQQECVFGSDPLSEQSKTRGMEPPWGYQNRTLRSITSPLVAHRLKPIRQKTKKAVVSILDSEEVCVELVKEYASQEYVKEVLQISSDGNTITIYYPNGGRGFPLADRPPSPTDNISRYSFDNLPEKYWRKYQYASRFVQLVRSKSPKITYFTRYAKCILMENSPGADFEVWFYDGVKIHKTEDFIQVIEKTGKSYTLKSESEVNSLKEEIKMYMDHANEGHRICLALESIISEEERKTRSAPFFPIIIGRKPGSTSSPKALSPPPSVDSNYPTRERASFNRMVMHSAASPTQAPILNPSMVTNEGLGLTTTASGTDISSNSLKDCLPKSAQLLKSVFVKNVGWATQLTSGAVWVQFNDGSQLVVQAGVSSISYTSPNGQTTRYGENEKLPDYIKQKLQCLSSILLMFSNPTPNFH
Catalogue of IC50 readings, one per entry.

Cl.NCC1(c2nc(-c3ccc(Cl)c(O)c3)c(-c3ccncc3)[nH]2)CCCCC1: > 20 µM

API: the following record is the query input.
Exercise: For CN(C)CC(O)COc1ccc(Nc2ncc([N+](=O)[O-])c(Nc3ccccc3O)n2)cc1.O=C(O)C(F)(F)F (centres unmarked) , what is its reported IC50?
Solution: > 20 µM
